Molecular target: Bcl-2 (Homo sapiens, UniProt P10415, DEL53-91)
Construct: myc- Bcl-2 FP; made in house
Sequence (P10415 with tags, fused parts or gaps DEL53-91): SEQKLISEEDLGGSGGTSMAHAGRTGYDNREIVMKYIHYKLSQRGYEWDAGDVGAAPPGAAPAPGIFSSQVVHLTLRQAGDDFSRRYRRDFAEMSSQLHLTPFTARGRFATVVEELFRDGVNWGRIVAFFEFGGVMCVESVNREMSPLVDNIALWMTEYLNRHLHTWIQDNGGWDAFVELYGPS
Experiment: Fluorescence polarization direct binding
pKd: −log10 of the molar value. No end group written: not given here.

{"Substance": "RLVQQSKALKELADELQERAQRP-NH2 [TRIM58]", "pKd": 6.01}

====

Target: Bcl-xL (Homo sapiens, UniProt Q07817)
Construct: myc-Bcl-xL SPOT array & FP; made in house
Sequence (Q07817 with tags, fused parts or gaps): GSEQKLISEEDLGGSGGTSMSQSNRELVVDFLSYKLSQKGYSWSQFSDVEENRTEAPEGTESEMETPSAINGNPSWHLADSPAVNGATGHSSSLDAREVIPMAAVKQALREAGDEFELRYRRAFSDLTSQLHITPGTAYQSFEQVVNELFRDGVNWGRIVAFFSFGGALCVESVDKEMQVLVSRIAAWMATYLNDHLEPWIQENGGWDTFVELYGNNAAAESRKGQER
Assay: LUMIER full-length protein interaction
Format: binding
Settings: LUMIER results for Bcl-xL; Z-score relative to Gaussian fit of the data; experiment 2, duplicate 2
I would appreciate it if you labelled entries True when z-score 2.2 is 0.7 or higher, otherwise False.

{"Substance": "PRDX4 (LDFTFVCPTEIIAFGDRLEEFRSINT)", "Test system": "Bcl-xL (Homo sapiens, UniProt Q07817)", "Label class": "False"}
{"Substance": "C7orf26 (FDHMVPLVEEINRLADELNPLNASQE)", "Test system": "Bcl-xL (Homo sapiens, UniProt Q07817)", "Label class": "True"}
{"Substance": "HEXDC (VLELHPGAQRLHIGCDEVYYLGEGEA)", "Test system": "Bcl-xL (Homo sapiens, UniProt Q07817)", "Label class": "False"}
{"Substance": "PRCP (DDMFEPHSWNLKELSDDCFQQWGVRP)", "Test system": "Bcl-xL (Homo sapiens, UniProt Q07817)", "Label class": "True"}
{"Substance": "WRAP53 (RKDAELLCWDLRQSGYPLWSLGREVT)", "Test system": "Bcl-xL (Homo sapiens, UniProt Q07817)", "Label class": "True"}
{"Substance": "P2RX7 (QCPIFRLGDIFRETGDNFSDVAIQGG)", "Test system": "Bcl-xL (Homo sapiens, UniProt Q07817)", "Label class": "False"}
{"Substance": "DZIP3 (NGGLLEFHKSLQEIGDKNDHWFDIDP)", "Test system": "Bcl-xL (Homo sapiens, UniProt Q07817)", "Label class": "False"}
{"Substance": "DHX30 (PVESSWIAPELRLQSDDILPLGKDSG)", "Test system": "Bcl-xL (Homo sapiens, UniProt Q07817)", "Label class": "True"}
{"Substance": "RBL1 (WTLFVYTKGNFRMIGDDLVNSYHLLL)", "Test system": "Bcl-xL (Homo sapiens, UniProt Q07817)", "Label class": "True"}

Source: paper PMC4072508
